EXPERIMENT: Protein binding analysis (RED), minipig plasma
Format: in vitro ADME
CONDITION: male, Gottingen, pH 7.4, RED 4 h, read-out: minipig FU
READOUT NAME: fraction unbound at 4 h, 5 μM
API doc: respond with a numeric literal and nothing else, no unit.

INSERT INTO measurements (structure_string, readout_name, experimental_value) VALUES
  ('CC1(C)CCN(C(=O)C[C@H]2C[C@@H](Nc3c(C#N)cnc4[nH]ccc34)C2)CC1', 'fraction unbound at 4 h, 5 μM', 0.1);

Shift focus to the following entry.
stdin: fraction unbound at 4 h, 5 μM lookup needed for `CC1CCN(C(=O)C[C@H]2C[C@@H](Nc3c(C#N)cnc4[nH]ccc34)C2)CC1` , thanks.
stdout: 0.083

====

EXPERIMENT: pKa
Format: physicochemical
READOUT NAME: pKa

stdin: pKa lookup needed for `CC1(C)CCN(C(=O)C[C@H]2C[C@@H](Nc3c(C#N)cnc4[nH]ccc34)C2)CC1` , thanks.
stdout: 3.7
